# measured on: IKZF2 (Homo sapiens, UniProt Q96SW2+Q9UKS7)
# method: HEK293 HiBiT in vitro degradation of IKZF2
# Assay type: cell-based
# Design: expressed in transfected cells
# study conditions: HEK293 HiBiT, 18-24 hr incubation, normalized to DMSO control; read-out: IKZF2 EC50
# Sequence (Q9UKS7 1-500 isoform Q9UKS7-2, one chain of several): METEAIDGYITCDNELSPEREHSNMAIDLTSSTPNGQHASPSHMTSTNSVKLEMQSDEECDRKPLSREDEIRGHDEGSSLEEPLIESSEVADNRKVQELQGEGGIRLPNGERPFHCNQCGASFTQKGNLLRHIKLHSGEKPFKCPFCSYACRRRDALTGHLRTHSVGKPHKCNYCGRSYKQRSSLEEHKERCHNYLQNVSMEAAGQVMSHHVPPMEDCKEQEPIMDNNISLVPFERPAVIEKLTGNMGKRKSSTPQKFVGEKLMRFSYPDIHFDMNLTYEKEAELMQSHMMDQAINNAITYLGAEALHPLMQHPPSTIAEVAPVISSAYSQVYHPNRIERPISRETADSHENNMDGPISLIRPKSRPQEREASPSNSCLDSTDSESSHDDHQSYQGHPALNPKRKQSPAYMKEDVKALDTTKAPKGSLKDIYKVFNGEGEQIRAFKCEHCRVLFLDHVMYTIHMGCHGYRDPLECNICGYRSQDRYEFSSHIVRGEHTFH
Mark label 1 only when DC50 stays strictly below 20 nM. Values equal to the cut-off are label 0.

Worked examples, 6 molecules total:
• O=C1CCC(N2Cc3c(ccc(C[C@H]4OCCC[C@@H]4NC4CC5(CCC5)C4)c3F)C2=O)C(=O)N1 (stereo partly drawn) = label 1
• O=C1CCC(N2Cc3cc(C[C@H]4OCCC[C@@H]4NC4CCCCC4)ccc3C2=O)C(=O)N1 (stereo partly drawn) [Example 179] = label 1
• O=C1CCC(N2Cc3cc(C[C@H]4CCCC[C@@H]4NC4C5CCCC4CC5)ccc3C2=O)C(=O)N1 (stereo partly drawn) = label 1
• O=C1CCC(N2Cc3cc(C[C@H]4CCCC[C@@H]4NCc4cncc(F)c4)ccc3C2=O)C(=O)N1 (stereo partly drawn) = label 0
• O=C1CCC(N2Cc3cc(C[C@H]4CCCC[C@@H]4NC4CCC(n5cnnc5)CC4)ccc3C2=O)C(=O)N1 (stereo partly drawn) = label 0
• CO[C@@H]1CCC[C@H](Cc2ccc3c(c2)CN(C2CCC(=O)NC2=O)C3=O)[C@H]1NC1CCC(F)(F)CC1 (stereo partly drawn) = label 1

Strictly below 20 nM: is that where DC50 of CC(CC1CC1)N[C@H]1CCCC[C@@H]1Cc1ccc2c(c1)CN(C1CCC(=O)NC1=O)C2=O (single isomer, unassigned) [Example 230] sits?
label 1

Now try O=C1CCC(N2Cc3c(ccc(C[C@H]4OCCC[C@@H]4NC4CC5(CCCCC5)C4)c3F)C2=O)C(=O)N1 (stereo partly drawn) .
label 1

Now try C[C@H](N[C@H]1CCCC[C@@H]1Cc1ccc2c(c1)CN(C1CCC(=O)NC1=O)C2=O)c1ccccc1 (stereo partly drawn) .
label 1

Now try O=C1CCC(N2Cc3cc(C[C@H]4CCCC[C@@H]4NC4CCCOC4)ccc3C2=O)C(=O)N1 (single isomer, unassigned) [Example 261] .
label 1

Now try O=C1CC[C@H](N2Cc3cc(C[C@H]4CCCC[C@@H]4NC4CCC(F)(F)CC4)cc(F)c3C2=O)C(=O)N1 .
label 0

Now try CCC(C)N[C@H]1CCCC[C@@H]1Cc1ccc2c(c1F)CN(C1CCC(=O)NC1=O)C2=O (single isomer, unassigned) [Example 294] .
label 1

Now try C[C@@H](N[C@H]1CCCC[C@@H]1Cc1ccc2c(c1)CN(C1CCC(=O)NC1=O)C2=O)c1ccccc1 (stereo partly drawn) .
label 0

Now try O=C1CCC(N2Cc3cc(C[C@H]4CCCC[C@@H]4NCc4ccccc4)ccc3C2=O)C(=O)N1 (single isomer, unassigned) [Example 97] .
label 0

Now try COCC1CCC(N[C@H]2CCCO[C@@H]2Cc2ccc3c(c2F)CN(C2CCC(=O)NC2=O)C3=O)CC1 (single isomer, unassigned) [Example 264] .
label 1

====

# measured on: IKZF2 (Homo sapiens, UniProt Q96SW2+Q9UKS7)
# method: HEK293 IKZF2 degradation kinetics (HiBiT, timepoints 1-24 h)
# Format: cell-based
# Design: expressed in transfected cells
# study conditions: HEK293, IKZF2; timepoints 1, 2, 3, 4.5 and 24 hour; read-out: Maximum degradation rate Kinact (converted)
Entries and their kinact
Please give a number only; it is taken to be in s⁻¹.

These solved cases illustrate the format of a correct answer.
• O=C1CCC(N2Cc3cc(C[C@H]4CCCC[C@@H]4NCc4ccccc4)ccc3C2=O)C(=O)N1 (stereo partly shown) = 0.000147
• O=C1CC[C@H](N2Cc3c(ccc(C[C@H]4OCCC[C@@H]4N[C@H]4CC[C@H](F)CC4)c3F)C2=O)C(=O)N1 = 0.000106
• O=C1CCC(N2Cc3c(ccc(C[C@H]4OCCC[C@@H]4NC4CCCCC4)c3F)C2=O)C(=O)N1 (stereo partly shown) = 0.000106
• CC(N[C@H]1CCCC[C@@H]1Cc1ccc2c(c1)CN(C1CCC(=O)NC1=O)C2=O)C1CCC1 (stereo partly shown) = 0.000131
• O=C1CCC(N2Cc3c(ccc(C[C@H]4CCCC[C@@H]4NC4CCCC4)c3F)C2=O)C(=O)N1 (stereo partly shown) = 0.000139

Consider the compound O=C1CCC(N2Cc3c(ccc(C[C@H]4CCCC[C@@H]4NC4CCOCC4)c3F)C2=O)C(=O)N1 (stereo partly shown) and give its measured kinact.
0.00015

Now try CC(N[C@H]1CCCC[C@@H]1Cc1ccc2c(c1F)CN(C1CCC(=O)NC1=O)C2=O)C1CCOCC1 (single isomer, unassigned) .
0.000189

Now try CC(N[C@H]1CCCO[C@@H]1Cc1ccc2c(c1F)CN(C1CCC(=O)NC1=O)C2=O)C1CCOCC1 (single isomer, unassigned) .
8.61e-05

Now try O=C1CCC(N2Cc3c(ccc(C[C@H]4OCCC[C@@H]4N[C@H]4CC[C@H](F)CC4)c3F)C2=O)C(=O)N1 (single isomer, unassigned) .
0.000131

Now try O=C1CCC(N2Cc3cc(C[C@H]4CCCC[C@@H]4NC4CCC(F)(F)CC4)ccc3C2=O)C(=O)N1 (stereo partly shown) .
0.000158

====

Entries and their Dmax
# measured on: IKZF1 (Homo sapiens, UniProt Q13422+Q96SW2)
# Construct: expressed in transfected cells
# Sequence (Q13422 whole entry): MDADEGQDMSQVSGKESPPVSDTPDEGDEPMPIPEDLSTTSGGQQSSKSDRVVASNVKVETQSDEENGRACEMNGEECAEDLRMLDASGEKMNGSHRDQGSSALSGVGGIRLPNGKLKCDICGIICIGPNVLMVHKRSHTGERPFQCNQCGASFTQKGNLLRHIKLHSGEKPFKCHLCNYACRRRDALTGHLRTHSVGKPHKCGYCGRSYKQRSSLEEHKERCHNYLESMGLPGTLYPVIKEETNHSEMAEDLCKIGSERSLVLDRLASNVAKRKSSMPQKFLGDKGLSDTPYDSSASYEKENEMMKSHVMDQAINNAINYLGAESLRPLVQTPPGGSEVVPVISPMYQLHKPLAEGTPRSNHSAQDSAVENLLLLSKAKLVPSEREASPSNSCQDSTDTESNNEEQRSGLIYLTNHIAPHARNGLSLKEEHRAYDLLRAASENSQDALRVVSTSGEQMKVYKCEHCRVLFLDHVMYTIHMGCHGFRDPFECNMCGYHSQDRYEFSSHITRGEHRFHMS
# Sequence (Q96SW2 whole entry): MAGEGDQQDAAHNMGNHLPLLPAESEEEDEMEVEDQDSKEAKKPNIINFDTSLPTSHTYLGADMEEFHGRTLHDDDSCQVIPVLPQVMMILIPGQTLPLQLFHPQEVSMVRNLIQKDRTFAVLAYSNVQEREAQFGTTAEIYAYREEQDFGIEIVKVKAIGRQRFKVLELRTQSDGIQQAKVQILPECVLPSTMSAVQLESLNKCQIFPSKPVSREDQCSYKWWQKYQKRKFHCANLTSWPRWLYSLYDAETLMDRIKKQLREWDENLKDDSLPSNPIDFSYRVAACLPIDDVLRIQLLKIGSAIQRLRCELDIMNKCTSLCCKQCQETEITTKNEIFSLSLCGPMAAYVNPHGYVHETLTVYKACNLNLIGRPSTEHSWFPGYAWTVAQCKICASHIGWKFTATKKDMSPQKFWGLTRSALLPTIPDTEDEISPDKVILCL
# Sequence (Q16531 whole entry partner): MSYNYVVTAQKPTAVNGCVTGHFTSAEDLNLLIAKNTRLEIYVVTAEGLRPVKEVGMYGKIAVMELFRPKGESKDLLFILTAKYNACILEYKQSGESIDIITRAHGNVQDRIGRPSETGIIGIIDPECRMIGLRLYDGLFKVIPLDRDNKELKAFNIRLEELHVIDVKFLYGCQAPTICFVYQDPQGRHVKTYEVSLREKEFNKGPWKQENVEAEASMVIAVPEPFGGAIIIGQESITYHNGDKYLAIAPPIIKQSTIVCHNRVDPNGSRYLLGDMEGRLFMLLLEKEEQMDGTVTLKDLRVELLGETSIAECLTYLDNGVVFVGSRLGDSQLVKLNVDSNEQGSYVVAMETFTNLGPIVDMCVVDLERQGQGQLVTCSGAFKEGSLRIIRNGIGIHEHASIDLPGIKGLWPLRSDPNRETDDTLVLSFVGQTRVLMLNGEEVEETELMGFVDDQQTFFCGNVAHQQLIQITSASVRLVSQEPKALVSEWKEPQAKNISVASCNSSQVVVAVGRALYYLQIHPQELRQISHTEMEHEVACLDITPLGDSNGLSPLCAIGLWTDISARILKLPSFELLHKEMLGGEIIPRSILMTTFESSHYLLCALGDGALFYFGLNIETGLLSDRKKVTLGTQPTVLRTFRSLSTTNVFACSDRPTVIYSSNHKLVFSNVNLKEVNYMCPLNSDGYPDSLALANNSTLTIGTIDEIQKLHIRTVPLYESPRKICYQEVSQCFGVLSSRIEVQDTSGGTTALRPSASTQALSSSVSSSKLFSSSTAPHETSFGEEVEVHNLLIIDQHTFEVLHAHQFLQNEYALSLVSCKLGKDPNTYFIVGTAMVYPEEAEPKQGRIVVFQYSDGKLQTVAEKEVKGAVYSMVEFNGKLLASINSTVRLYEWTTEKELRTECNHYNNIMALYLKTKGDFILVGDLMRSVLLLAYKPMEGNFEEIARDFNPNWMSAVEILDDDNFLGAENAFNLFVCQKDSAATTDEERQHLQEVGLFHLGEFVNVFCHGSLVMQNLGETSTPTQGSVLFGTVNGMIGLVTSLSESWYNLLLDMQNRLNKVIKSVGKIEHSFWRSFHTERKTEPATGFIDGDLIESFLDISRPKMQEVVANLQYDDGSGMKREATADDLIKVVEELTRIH
# method: HEK293 HiBiT in vitro degradation of IKZF1
# Type: cell-based
# study conditions: HEK293, HEK293 HiBiT; maximum degradation at the highest concentration tested
Please give a number only; it is taken to be in %.

• CCC(C)N[C@H]1CCCC[C@@H]1Cc1ccc2c(c1F)CN(C1CCC(=O)NC1=O)C2=O (single isomer, unassigned) [Example 294] = 59
• CCCCN[C@H]1CCCC[C@@H]1Cc1ccc2c(c1)CN(C1CCC(=O)NC1=O)C2=O (stereo partly drawn) [Example 128] = 19
• O=C1CCC(N2Cc3cc(C[C@H]4CCCC[C@@H]4NC4CCc5c(C(F)(F)F)n[nH]c5C4)ccc3C2=O)C(=O)N1 (stereo partly drawn) [Example 375] = 65

Query Dmax on IKZF1 (Homo sapiens, UniProt Q13422+Q96SW2) for O=C1CCC(N2Cc3c(ccc(C[C@H]4CCCC[C@@H]4NC4CCOCC4)c3F)C2=O)C(=O)N1 (stereo partly drawn) [Example 116]
34

Now try O=C1CCC(N2Cc3cc(C[C@H]4CCCC[C@@H]4N4CC(Oc5ccccc5Cl)C4)ccc3C2=O)C(=O)N1 (stereo partly drawn) [Example 30] .
34

Now try O=C1CCC(N2Cc3cc(C[C@H]4C[C@H](F)CC[C@@H]4NC4CCC(F)(F)CC4)ccc3C2=O)C(=O)N1 (stereo partly drawn) [Example 169] .
42

Now try O=C1CCC(N2Cc3cc(C[C@H]4C[C@@H](O)CC[C@@H]4NC4CCC(F)(F)CC4)ccc3C2=O)C(=O)N1 (stereo partly drawn) [Example 162] .
42

Now try O=C1CCC(N2Cc3c(ccc(C[C@H]4CCCC[C@@H]4NCC45CC(C4)C5)c3F)C2=O)C(=O)N1 (stereo partly drawn) [Example 96] .
35

====

# measured on: IKZF2 (Homo sapiens, UniProt Q96SW2+Q9UKS7)
# method: Human whole blood IKZF2 degradation (flow cytometry, CD4/CD25/Foxp3+ Treg cells)
# Format: cell-based
# Parameters: endogenous in cells
# study conditions: 24 hrs incubation, IKZF2 MFI in CD4/CD25/Foxp3+ Treg cells, flow cytometry, read-out: IKZF2 EC50
# Sequence (Q9UKS7 whole entry, one chain of several): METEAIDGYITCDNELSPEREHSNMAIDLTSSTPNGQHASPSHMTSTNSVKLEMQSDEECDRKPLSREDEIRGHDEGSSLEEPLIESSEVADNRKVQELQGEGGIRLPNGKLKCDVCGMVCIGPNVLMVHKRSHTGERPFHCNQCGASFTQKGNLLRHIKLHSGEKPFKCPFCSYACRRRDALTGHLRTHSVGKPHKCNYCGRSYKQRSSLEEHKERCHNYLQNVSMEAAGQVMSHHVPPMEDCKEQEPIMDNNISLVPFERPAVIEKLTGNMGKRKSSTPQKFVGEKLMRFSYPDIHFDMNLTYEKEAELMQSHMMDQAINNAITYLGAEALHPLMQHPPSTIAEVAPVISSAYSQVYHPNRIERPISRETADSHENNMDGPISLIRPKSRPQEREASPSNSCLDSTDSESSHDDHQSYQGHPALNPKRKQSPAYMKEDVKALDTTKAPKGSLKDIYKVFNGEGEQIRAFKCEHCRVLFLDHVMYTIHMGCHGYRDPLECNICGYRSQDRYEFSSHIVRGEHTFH
endpoint name: DC50 (nM)
Please give a number only; it is taken to be in nM.

These solved cases illustrate the format of a correct answer.
* COCC1CCC(N[C@H]2CCCC[C@@H]2Cc2ccc3c(c2)CN(C2CCC(=O)NC2=O)C3=O)CC1 (single isomer, unassigned) [Example 252] | 1
* CC(C)(C)CCN[C@H]1CCCC[C@@H]1Cc1ccc2c(c1F)CN(C1CCC(=O)NC1=O)C2=O (stereo partly shown) | 5
* O=C1CCC(N2Cc3cc(C[C@H]4CCCC[C@@H]4NC4CC5(C4)CC(F)(F)C5)ccc3C2=O)C(=O)N1 (stereo partly shown) | 6
* COCC1CCC(N[C@H]2CCCC[C@@H]2Cc2ccc3c(c2)CN(C2CCC(=O)NC2=O)C3=O)CC1 (single isomer, unassigned) [Example 251] | 2
* CC(N[C@H]1CCCC[C@@H]1Cc1ccc2c(c1F)CN(C1CCC(=O)NC1=O)C2=O)C1CCOCC1 (single isomer, unassigned) [Example 287] | 2
* O=C1CCC(N2Cc3c(ccc(C[C@H]4CCCC[C@@H]4NC4CCOC4)c3F)C2=O)C(=O)N1 (stereo partly shown) [Example 117] | 1

Please examine the following record next.
Consider the compound CN(C1CCC(F)(F)CC1)[C@H]1CCCC[C@@H]1Cc1ccc2c(c1F)CN(C1CCC(=O)NC1=O)C2=O (stereo partly shown) and give its measured DC50.
23
